# Test system: Fibroblast
# assay_comment: Multiplex assay against human fibroblast
# Type: toxicity, cell-based
# particulars: 48 h, 1 µM, compound concentration 1 uM, replicate 2
Listed compounds paired with reported Population Normal (%)
Write the value in % as a bare number.

# count of solved cases: 10
{"compound": "COc1cc(OC2CCN(C(C)=O)CC2)ccc1C(=O)N1CCC(N2C(=O)OCc3ccccc32)CC1", "meas_value": 96}
{"compound": "CN1C[C@H](C(=O)N[C@]2(C)O[C@@]3(O)[C@@H]4CCCN4C(=O)[C@H](Cc4ccccc4)N3C2=O)C[C@@H]2c3cccc4[nH]cc(c34)C[C@H]21.CS(=O)(=O)O [DIHYDROERGOTAMINE MESYLATE]", "meas_value": 94}
{"compound": "Nc1nc(-c2ccco2)c2cnn(Cc3ccccc3F)c2n1", "meas_value": 93}
{"compound": "CN1CCC(C(=O)c2cccc(NC(=O)c3c(F)cc(F)cc3F)n2)CC1", "meas_value": 97}
{"compound": "N[C@](CC1c2ccccc2Oc2ccccc21)(C(=O)O)[C@H]1C[C@@H]1C(=O)O", "meas_value": 91}
{"compound": "CCCCCCNC(=O)Nc1ccc(S(=O)(=O)Nc2ccc(CCNC[C@H](O)COc3ccc(O)cc3)cc2)cc1 [L-755507]", "meas_value": 95}
{"compound": "CN(C)C/C=C/C(=O)Nc1ccc(C(=O)N2CCCC(Nc3ncc(Cl)c(-c4c[nH]c5ccccc45)n3)C2)cc1 (stereo unspecified)", "meas_value": 91}
{"compound": "Cc1sc2c(c1C)C(c1ccc(Cl)cc1)=N[C@H](CC(=O)OC(C)(C)C)c1nnc(C)n1-2", "meas_value": 95}
{"compound": "COc1c(Nc2ccc(S(C)(=O)=O)nc2C)ncnc1OC1CCN(C(=O)OC(C)C)CC1 [ADP-597]", "meas_value": 90}
{"compound": "COc1cc2nc(N3CCN(C(=O)COc4c(OC)cccc4C(C)C)CC3)nc(N)c2cc1OC.Cl.Cl", "meas_value": 89}

Attention now shifts to the item below.
I'm curious: which Population Normal (%) was measured for Cn1cc(C(=O)OCC2CCN(CCNS(C)(=O)=O)CC2)c2ccccc21 tested on Fibroblast?
95

====

# Tested on: U2OS
# assay_comment: Multiplex assay against U2OS
# Format: toxicity, cell-based
# particulars: human, 12 h, 1 µM, compound concentration 1 uM, replicate 1
reported_endpoint: Population Healthy Nuclei (%)
Write the value in % as a bare number.

{"molecule": "CCC(=O)OCC(=O)[C@@]1(OC(=O)CC)[C@@H](C)C[C@H]2[C@@H]3CCC4=CC(=O)C=C[C@]4(C)[C@@]3(Cl)[C@@H](O)C[C@@]21C [BECLOMETHASONE DIPROPIONATE]", "Population Healthy Nuclei (%)": 64}
{"molecule": "Cn1cc(C(=O)OCC2CCN(CCNS(C)(=O)=O)CC2)c2ccccc21", "Population Healthy Nuclei (%)": 63}
{"molecule": "O=C(O)CCC/C=C\\CC1C(O)CC(O)C1/C=C/C(O)COc1cccc(Cl)c1 (stereo not drawn) [CLOPROSTENOL]", "Population Healthy Nuclei (%)": 60}
{"molecule": "Cc1nn(C)c2nc(NNC(=O)Nc3cc(Cl)nc(Cl)c3)cc(C(C)C)c12", "Population Healthy Nuclei (%)": 66}
{"molecule": "COc1cc2nc(N3CCN(C(=O)COc4c(OC)cccc4C(C)C)CC3)nc(N)c2cc1OC.Cl.Cl", "Population Healthy Nuclei (%)": 66}

Please look up its Population Healthy Nuclei (%): CN(C)C(=O)Cn1cc(-c2ccc(-c3nnc4ccccn34)cc2)cn1
66

Try the molecule CCn1c(-c2nc3cc(C(=O)N4CCCC(N)C4)ccc3n2C)cc2ccccc21.Cl (stereo not drawn)
67

Try the molecule O=C(Nc1cc(-c2ccccc2)nn1-c1ccccc1F)c1ccc([N+](=O)[O-])cc1
66
